Assignment: determine reported pIC50 for the given compounds.
target: Cyclin-dependent kinase 5/CDK5 activator 1 (Homo sapiens); test: Inhibition of recombinant human CDK5/p25 after 30 mins by scintillation counting
Sequence (Q00535 whole entry): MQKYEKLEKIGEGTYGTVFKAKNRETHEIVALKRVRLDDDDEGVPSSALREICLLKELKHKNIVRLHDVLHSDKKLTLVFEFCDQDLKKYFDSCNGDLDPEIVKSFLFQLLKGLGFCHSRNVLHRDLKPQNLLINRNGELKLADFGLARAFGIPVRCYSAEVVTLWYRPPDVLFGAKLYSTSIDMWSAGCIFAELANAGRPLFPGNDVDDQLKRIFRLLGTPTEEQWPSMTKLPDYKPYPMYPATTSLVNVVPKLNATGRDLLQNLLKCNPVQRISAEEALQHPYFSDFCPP
Sequence (Q15078 whole entry, further chain): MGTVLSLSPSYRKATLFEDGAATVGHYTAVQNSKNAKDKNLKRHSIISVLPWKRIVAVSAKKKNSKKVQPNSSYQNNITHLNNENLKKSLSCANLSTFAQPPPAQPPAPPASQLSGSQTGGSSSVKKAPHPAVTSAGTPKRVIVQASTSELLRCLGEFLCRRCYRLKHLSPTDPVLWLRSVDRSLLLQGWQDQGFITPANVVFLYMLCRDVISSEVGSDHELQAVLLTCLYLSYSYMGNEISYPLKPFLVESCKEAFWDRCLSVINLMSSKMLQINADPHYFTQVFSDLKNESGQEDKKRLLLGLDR
By convention, pIC50 is the negative base-10 log of a molar concentration.

Prompt: Specify measured pIC50 for `CC(C)[C@@H](CO)Nc1nc(Nc2ccnnc2)c2ncn(C(C)C)c2n1` .
Completion: 6.64

Prompt: Check the records and state pIC50 for `CC(C)[C@H](CO)Nc1nc(Nc2ccnnc2)c2ncn(C(C)C)c2n1`
Completion: 7.39

Prompt: Using the record for `CC(C)[C@H](CO)Nc1nc(Nc2cccnc2)c2ncn(C(C)C)c2n1` , state its measured pIC50.
Completion: 7.66

Prompt: Tell me its pIC50 given `CC(C)n1cnc2c(Nc3cncnc3)nc(Cl)nc21` as the entry.
Completion: 5.55

Prompt: Output pIC50 of `CC(C)[C@H](CO)Nc1nc(Nc2ccccn2)c2ncn(C(C)C)c2n1`
Completion: 5.96

Prompt: Please report the measured pIC50 for `CC(C)n1cnc2c(Nc3ccccn3)nc(Cl)nc21`
Completion: 5.68

Prompt: Answer with the recorded pIC50 of `CC(C)n1cnc2c(Nc3ccncc3)nc(Cl)nc21` only.
Completion: 5.13

This collection of values is drawn from ChEMBL document CHEMBL2311464.
